Assign switch fluorescence ratio to each entry below.
Tested on: ATP;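 further: ATP exposure 15 min at 22 °C before imaging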
protocolSummary: switch fluorescence ratio, 500 uM ATP over buffer (Cy3 cluster intensity, sum of 5 cycles each) (fold (ratio)); higher = stronger signal-on switching upon ATP binding; sequences stand for … in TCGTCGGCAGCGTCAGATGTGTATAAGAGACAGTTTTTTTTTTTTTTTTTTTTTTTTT…TC
conditionsUsed: aptamer strand: ATP DNA aptamer (quencher-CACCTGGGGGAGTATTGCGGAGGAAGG + anchor), 100 nM annealed; ATP concentration: 500 uM
Could you keep your reply to the number by itself?

Test item CATAGGTCAT ; ATP; reported switch fluorescence ratio was 1.03

Result for CGTAGTACGC , tested on ATP, switch fluorescence ratio: 1.12

Field switch fluorescence ratio (ATP), entry TTCTAGGAAT : 1.02

Form field switch fluorescence ratio for item CATATGGGGT on ATP: 1

Observed switch fluorescence ratio, ATP, GCGGTTGTGC : 0.935

ATP data for TTTTATATTT ; its switch fluorescence ratio: 1

// sequence GTGTGAAAAC , assay ATP, switch fluorescence ratio value: 1.02

With ATP as the test system, TATCGAGTCG showed switch fluorescence ratio of 0.997

// switch fluorescence ratio (ATP) for CACTTCTTAT = 0.973

Fill in: ATP switch fluorescence ratio for GTATGAAATC = 1.02

Readout switch fluorescence ratio for TTTGGTATGG , test system ATP, was 0.997

Readout switch fluorescence ratio for GTGAGTCTGT , test system ATP, was 0.989

Simply: ATCTTGGTCC , ATP, switch fluorescence ratio = 0.995

Lab note: sequence CTGGGTTTAT tested on ATP; recorded switch fluorescence ratio was 1

So the reported switch fluorescence ratio for GAGGGGCCGA , on ATP, turned out to be 0.973

Readout switch fluorescence ratio for ACTAGGGGGG , test system ATP, was 1.01

ATP data for CTGCTCTGGG ; its switch fluorescence ratio: 1.02

switch fluorescence ratio value, target or system ATP, for TGGCTGAGAA : 0.972

For the sequence TTTTGTGTTT , the measured switch fluorescence ratio on ATP was 0.997

Summary line: AAAGCCTTGG , ATP, reported switch fluorescence ratio = 0.973

---

Tested on: ATP;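 further: ATP exposure 15 min at 22 °C before imaging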
protocolSummary: switch fluorescence ratio, 500 uM ATP over buffer (Cy3 cluster intensity, sum of 5 cycles each) (fold (ratio)); higher = stronger signal-on switching upon ATP binding; sequences stand for … in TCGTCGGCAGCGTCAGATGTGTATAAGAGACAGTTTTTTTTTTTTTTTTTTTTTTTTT…TC
conditionsUsed: aptamer strand: ATP DNA aptamer (quencher-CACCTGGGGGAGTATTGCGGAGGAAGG + anchor), 100 nM annealed; ATP concentration: 500 uM
We use 1 as the dividing line for switch fluorescence ratio: on or above the line is rule met, below is rule not met.

State whether the measured switch fluorescence ratio reaches 1, counting equality as reaching it, for TTGGCCGGGT
rule met

# check: switch fluorescence ratio of TCGACAGTCC is greater than or equal to 1
rule met

Determine whether measured switch fluorescence ratio meets or exceeds 1 for CTGCAAGGGA
rule met

Can TAACAGTTAA be said to have switch fluorescence ratio at or above 1?
rule met

Confirm if switch fluorescence ratio reported for the sequence TATAAAGGG is 1 or above.
rule not met

Decide: is the reported value of switch fluorescence ratio for GAATGACCCG equal to or greater than 1?
rule met

Value source: the supplement of paper PMC10126150
